Molecular target: purified Na^+,K^+ -ATPase (Canis lupus familiaris)
Construct: from tissue; mammalian kidney outer medulla by the cited Jorgensen 1974 method (own knowledge)
Test: inhibition of the activity of the purified Na+,K+-ATPase measured as % of hydrolysis of 32P-ATP
Type: biochemical
Source text: To test the affinity for the receptor site of the Na^+,K^+ -ATPase and the agonist or antagonist activity on the enzyme, the following tests were used: a) displacement of the specific ^3 H-ouabain binding from the Na^+,K^+ -ATPase receptor purified according to Jorghensen (Jorghensen P., BBA, 1974, 356, 36) and Erdmann (Erdmann E. et al., Arzneim. […]
readout kind: pIC50
Notebook: values listed as pIC50 are -log10 of the concentration (mol/L).

What value of pIC50 has been recorded for this entry: C[C@]12CC[C@H](OCCN)C[C@H]1CC[C@@H]1[C@@H]2CC[C@]2(C)[C@@H](c3ccoc3)CC[C@]12O [Comp. I-aa]
6.30

What value of pIC50 has been recorded for this entry: C[C@]12CC[C@H](OCCCN3CCCC3)C[C@H]1CC[C@@H]1[C@@H]2CC[C@]2(C)[C@@H](c3ccoc3)CC[C@]12O [Comp. I-ae]
6.10

What value of pIC50 has been recorded for this entry: C[C@]12CC[C@H](SCCCN3CCNCC3)C[C@H]1CC[C@@H]1[C@@H]2CC[C@]2(C)[C@@H](c3ccoc3)CC[C@]12O [Comp. I-bx, dioxalate]
6.00

====

Target: purified Na^+,K^+ -ATPase (Canis lupus familiaris, UniProt P50997)
Construct: from tissue; mammalian kidney outer medulla by the cited Jorgensen 1974 method (own knowledge)
Assay: inhibition of the activity of the purified Na+,K+-ATPase measured as % of hydrolysis of 32P-ATP
Type: biochemical
Description: To test the affinity for the receptor site of the Na^+,K^+ -ATPase and the agonist or antagonist activity on the enzyme, the following tests were used: a) displacement of the specific ^3 H-ouabain binding from the Na^+,K^+ -ATPase receptor purified according to Jorghensen (Jorghensen P., BBA, 1974, 356, 36) and Erdmann (Erdmann E. et al., Arzneim. […]
Structures can show the parent of a compound that is named as a salt.
So I've got a bunch of compounds here, and I need their pIC50 values.
Notebook: values listed as pIC50 are -log10 of the concentration (mol/L).

What value of pIC50 has been recorded for this entry: C[C@]12CC[C@H](OCCCN)C=C1CC[C@@H]1[C@@H]2CC[C@]2(C)[C@@H](c3ccoc3)CC[C@]12O [Comp. I-at]
5.60

What value of pIC50 has been recorded for this entry: C[C@]12CC[C@H](SCCN3CCCC3)C=C1CC[C@@H]1[C@@H]2CC[C@]2(C)[C@@H](c3ccoc3)CC[C@]12O [Comp. I-ce, oxalate]
5.50

What value of pIC50 has been recorded for this entry: C[C@]12CC[C@H](OCC(CN3CCCC3)N3CCCC3)C[C@H]1CC[C@@H]1[C@@H]2CC[C@]2(C)[C@@H](c3ccoc3)CC[C@]12O (stereo partly shown) [Comp. I-ap]
5.80

What value of pIC50 has been recorded for this entry: C[C@]12CC[C@H](OCCN3CCCC3)C[C@H]1CC[C@@H]1[C@@H]2CC[C@]2(C)[C@@H](c3ccoc3)C[C@H]3O[C@]132 [Comp. I-ba, oxalate]
5.80

====

So I've got a bunch of compounds here, and I need their IC50 values.
Target: purified Na^+,K^+ -ATPase (Canis lupus familiaris, UniProt P50997)
Construct: from tissue; mammalian kidney outer medulla by the cited Jorgensen 1974 method (own knowledge)
Assay: inhibition of the activity of the purified Na+,K+-ATPase measured as % of hydrolysis of 32P-ATP
Type: biochemical
Where a name gives a salt, the structure may show the parent alone.

Given the entry C[C@]12CC[C@H](OCCN3CCCC3)C[C@@H]1CC[C@@H]1[C@@H]2CC[C@]2(C)[C@@H](c3ccoc3)CC[C@]12O [Comp. I-ay] , what IC50 was observed with purified Na^+,K^+ -ATPase (Canis lupus familiaris, UniProt P50997)?
3.16 µM

Given the entry C[C@]12CC[C@H](SCCCN)C[C@H]1CC[C@@H]1[C@@H]2CC[C@]2(C)[C@@H](c3ccoc3)C[C@H]3O[C@]132 [Comp. I-cj, oxalate] , what IC50 was observed with purified Na^+,K^+ -ATPase (Canis lupus familiaris, UniProt P50997)?
6.31 µM

Given the entry C[C@]12CC[C@H](SCCN)C[C@H]1CC[C@@H]1[C@@H]2CC[C@]2(C)[C@@H](c3ccoc3)CC[C@]12O [Comp. I-bv] , what IC50 was observed with purified Na^+,K^+ -ATPase (Canis lupus familiaris, UniProt P50997)?
2 µM

====

Biological target: Na^+,K^+ -ATPase receptor (Canis lupus familiaris)
Construct: from tissue; mammalian kidney outer medulla by the cited Jorgensen 1974 method (own knowledge)
Assay: displacement of the specific 3H-ouabain binding from the purified Na+,K+-ATPase receptor
Counter-ions that a name gives are not always drawn.
So I've got a bunch of compounds here, and I need their IC50 values.
Your answer is read as nM, so omit the unit and give the number.

What value of IC50 has been recorded for this entry: C[C@]12CC[C@H](OCCOCCCN)C[C@H]1CC[C@@H]1[C@@H]2CC[C@]2(C)[C@@H](c3ccoc3)CC[C@]12O
200

What value of IC50 has been recorded for this entry: C[C@]12CC[C@H](OCCN3CCCC3)C[C@H]1CC[C@@H]1[C@@H]2CC[C@]2(C)[C@@H](c3ccoc3)CC[C@]12O
158

What value of IC50 has been recorded for this entry: C[C@]12CC[C@H](SCCCN3CCNCC3)C[C@H]1CC[C@@H]1[C@@H]2CC[C@]2(C)[C@@H](c3ccoc3)CC[C@]12O [Comp. I-bx, dioxalate]
501

What value of IC50 has been recorded for this entry: C[C@]12CC[C@H](OCCN3CCCC3)C[C@H]1CC[C@@H]1[C@@H]2CC[C@]2(C)[C@@H](c3ccoc3)C[C@H]3O[C@]132 [Comp. I-ba, oxalate]
631

What value of IC50 has been recorded for this entry: C[C@]12CC[C@H](OCCOCC(O)CN)C[C@H]1CC[C@@H]1[C@@H]2CC[C@]2(C)[C@@H](c3ccoc3)CC[C@]12O (stereo partly drawn)
398

What value of IC50 has been recorded for this entry: C[C@]12CC[C@H](OCCN3CCCC3)C[C@@H]1CC[C@@H]1[C@@H]2CC[C@]2(C)[C@@H](c3ccoc3)CC[C@]12O
398

meta.source: patent US5593982A
